# experiment: p53 small molecule agonists, cell-based qHTS assay with rat liver microsomes: qHTS cell viability counter screen (AID 1963580); also: % is scaled to controls: 0 for no effect and ±100 for the full control effect; nearly all actives have a fitted effect of over 45% in size
# assay_setup: p53RE-bla HCT-116 + rat microsomes, ATP viability, 16 h; series mostly up to 66 µM
Inconclusive results are not listed. The source made the active and inactive calls. Calls follow the shape of the full dose curve.
// classify into YES for active, NO for inactive

The following molecules have reported results that may help.
>  <molecule>
Cc1cc2cc3c(C)cc(=O)oc3c(C)c2o1

>  <assigned_label>
NO

$$$$
>  <molecule>
O=C(/C=C/c1ccc(O)c(O)c1)O[C@@H]1C[C@@](OC(=O)/C=C/c2ccc(O)c(O)c2)(C(=O)O)C[C@@H](O)[C@@H]1O

>  <assigned_label>
NO

$$$$
>  <molecule>
CN(C)c1ccc(N=Nc2ccccc2C(=O)O)cc1

>  <assigned_label>
NO

$$$$
>  <molecule>
CCCCCC[C@@H](O)C/C=C\CCCCCCCC(=O)O

>  <assigned_label>
NO

$$$$
>  <molecule>
CN(C/C=C/C#CC(C)(C)C)Cc1cccc2ccccc12

>  <assigned_label>
NO

$$$$
>  <molecule>
Cc1cccc(O)c1N

>  <assigned_label>
NO

$$$$
>  <molecule>
Cc1c(Nc2ncccc2C(=O)O)cccc1C(F)(F)F

>  <assigned_label>
NO

$$$$
>  <molecule>
O=C(c1ccccc1)c1cc(Cl)ccc1O

>  <assigned_label>
NO

$$$$

Query string: // param item: CCCC(=O)OC/C=C(\C)CCC=C(C)C ; yields the recorded call
Result string: NO

Query string: // param item: CCCCCCCCCCCCSC#N ; yields the recorded call
Result string: NO

Query string: // param item: CC(=O)Oc1ccc(C(=C2CCCCC2)c2ccc(OC(C)=O)cc2)cc1 ; yields the recorded call
Result string: NO

====

compounds and their reported activation
# target_or_system: 5-hydroxytryptamine receptor 2A (Homo sapiens)
# experiment: 5-hydroxytryptamine receptor 2A (HTR2A) small molecule agonists, cell-based qHTS assay (AID 1963587); also: % is scaled to controls: 0 for no effect and ±100 for the full control effect; nearly all actives have a fitted effect of over 30% in size
# assay_setup: HTR2A-CHO cells, calcium flux fluorescence, agonist mode; series mostly up to 76.8 µM
# Method: National Center for Advancing Translational Sciences [NCATS] Division of Preclinical Innovation [DPI] U.S. Environmental Protection Agency [EPA] National Institutes of Environmental Health Sciences [NIEHS] National Toxicology Program [NTP] […] HTR2A-CHO cells were dispensed at 2000 cells/3uL/well in 1536-well black-clear bottom plates using a Multidrop Dispenser. […] The fluorescence intensity in the plates was measured using FDSS 7000EX kinetic plate reader for 2 min at 1 sec intervals.
Records with an inconclusive call do not appear. Activity calls are given as the source filed them. The call rests on the fitted dose curve.

Example cases with answers are listed next.
>  <compound>
Cc1[nH]c(C)c(Cl)c(=O)c1Cl

>  <readout_type>
activation

>  <readout_value>
-10% [at 15.9 µM] (inactive)

$$$$
>  <compound>
CCCC(=O)O[C@]1(C(=O)COC(=O)CC)CC[C@H]2[C@@H]3CCC4=CC(=O)CC[C@]4(C)[C@H]3[C@@H](O)C[C@@]21C

>  <readout_type>
activation

>  <readout_value>
1.9% [at 15.9 µM] (inactive)

$$$$
>  <compound>
O=C(O)CN(CCOCCOCCN(CC(=O)O)CC(=O)O)CC(=O)O

>  <readout_type>
activation

>  <readout_value>
-0.693% [at 0.292 µM] (inactive)

$$$$
>  <compound>
O=C(C(=O)c1ccc(Br)cc1)c1ccc(Br)cc1

>  <readout_type>
activation

>  <readout_value>
2.38% [at 15.9 µM] (inactive)

$$$$
>  <compound>
CCCCCCCCCCCCCCCCCBr

>  <readout_type>
activation

>  <readout_value>
0.832% [at 15.9 µM] (inactive)

$$$$
>  <compound>
O=C(O)CN(CCN(CC(=O)O)CC(=O)O)CC(=O)O

>  <readout_type>
activation

>  <readout_value>
-0.659% [at 2.65 µM] (inactive)

$$$$
>  <compound>
COc1cc(C(C)C)c2c(c1)S(=O)(=O)N(COc1cc(=O)n3cccc(OCCN4CCCCC4)c3n1)C2=O

>  <readout_type>
activation

>  <readout_value>
-1.78% [at 15.9 µM] (inactive)

$$$$
>  <compound>
c1ccc(-c2ccc(-c3ccccc3)cc2)cc1

>  <readout_type>
activation

>  <readout_value>
13.6% [at 15.9 µM] (inactive)

$$$$
>  <compound>
CC(CSC(=O)c1ccccc1)C(=O)N1C[C@@H](Sc2ccccc2)C[C@H]1C(=O)O (stereo partly specified)

>  <readout_type>
activation

>  <readout_value>
-7.52% [at 15.9 µM] (inactive)

$$$$
>  <compound>
N=C(N)N1CCc2ccccc2C1

>  <readout_type>
activation

>  <readout_value>
-10.3% [at 7.02 µM] (inactive)

$$$$

Note: attention shifts to another entry.
Query string: Identify measured activation obtained with 5-hydroxytryptamine receptor 2A (Homo sapiens) for C1CCCCCCCCCCC1 .
Result string: -0.851% [at 15.9 µM] (inactive)

====

# experiment: Nuclear factor erythroid 2-related factor 2/antioxidant responsive element (Nrf2/ARE) small molecule agonists: luciferase reporter gene qHTS assay in human keratinocytes (AID 1919969); also: nearly all actives have a fitted effect of over 35% in size
# assay_setup: KeratinoSens HaCaT ARE-luciferase, luminescence, 24 h; series mostly up to 92.4 µM
Records with an inconclusive call do not appear. Activity calls are given as the source filed them. Calls come from the whole dose curve.
// classify into 1 (yes) (active), 0 (no) (inactive)

The following molecules have reported results that may help.
>  <molecule>
Cc1onc(-c2c(Cl)cccc2Cl)c1C(=O)N[C@@H]1C(=O)N2[C@@H]1SC(C)(C)[C@@H]2C(=O)O

>  <assigned_label>
0 (no)

$$$$
>  <molecule>
O=c1[nH]c2ccc(S(=O)CCN3CCC(Cc4ccc(F)cc4)CC3)cc2o1 (stereo unspecified)

>  <assigned_label>
1 (yes)

$$$$
>  <molecule>
FB(F)F

>  <assigned_label>
0 (no)

$$$$
>  <molecule>
COc1ccc(N=Nc2cc(C)c(N=Nc3ccc(S(=O)(=O)O)cc3)cc2OC)cc1

>  <assigned_label>
0 (no)

$$$$

Query string: // param item: Clc1ccc(Cn2c(CN3CCCC3)nc3ccccc32)cc1 ; yields the recorded call
Result string: 1 (yes)

Query string: // param item: CCC1Nc2cc(Cl)c(S(N)(=O)=O)cc2S(=O)(=O)N1 (stereo unspecified) ; yields the recorded call
Result string: 0 (no)

====

# target_or_system: Beta-2 adrenergic receptor (Homo sapiens)
# experiment: Adrenergic beta2 receptor (ADRB2) small molecule antagonists, cell-based qHTS assay (AID 1963592); also: % is scaled to controls: 0 for no effect and ±100 for the full control effect; nearly all actives have a fitted effect of over 50% in size
# assay_setup: CHO-ADRB2 cells, isoproterenol-stimulated cAMP HTRF ratio, 0.5 h; series mostly up to 92.4 µM
Inconclusive results are not listed. The source made the active and inactive calls. Calls come from the whole dose curve.
readout_type: outcome

>  <compound>
CC1(C)O[C@@H]2C[C@H]3[C@@H]4CCC5=CC(=O)C=C[C@]5(C)[C@H]4[C@@H](O)C[C@]3(C)[C@]2(C(=O)CO)O1

>  <outcome>
inactive

$$$$
>  <compound>
O=c1[nH]c2ccccc2n1CCCN1CCN(C(c2ccccc2)c2ccccc2)CC1

>  <outcome>
inactive

$$$$
>  <compound>
c1ccc(-c2ccc(C(c3ccccc3)n3ccnc3)cc2)cc1 (stereo not given)

>  <outcome>
inactive

$$$$
>  <compound>
O=c1[nH]nc(-c2ccc([N+](=O)[O-])o2)o1

>  <outcome>
inactive

$$$$

Note: attention shifts to another entry.
Query string: Complete the entry with outcome for CCCCCCCCC(=O)OCC(C)OC(=O)CCCCCCCC (stereo not given)
Result string: inactive

====

# experiment: p53 small molecule agonists, cell-based qHTS assay with human liver microsomes: qHTS cell viability counter screen (AID 1963579); also: % is scaled to controls: 0 for no effect and ±100 for the full control effect; nearly all actives have a fitted effect of over 45% in size
# assay_setup: p53RE-bla HCT-116 viability, ATP luminescence, 16 h, HLM; series mostly up to 66 µM
Records with an inconclusive call do not appear. The source made the active and inactive calls. Calls follow the shape of the full dose curve.
// classify into True (active), False (inactive)

>  <compound>
CC(=O)Oc1ccc([N+](=O)[O-])cc1CCl

>  <assigned_label>
False

$$$$
>  <compound>
CCNC(=O)/C=C/c1cccc(Br)c1

>  <assigned_label>
False

$$$$
>  <compound>
CCC(C)C(C)=O (stereo not given)

>  <assigned_label>
False

$$$$
>  <compound>
CCN(CCC#N)c1ccccc1

>  <assigned_label>
False

$$$$
>  <compound>
O=P(c1ccccc1)(c1ccccc1)c1ccccc1

>  <assigned_label>
False

$$$$
>  <compound>
O=C1NC(=O)c2cc([N+](=O)[O-])ccc21

>  <assigned_label>
False

$$$$

API: the following record is the query input.
Query string: // param item: NNc1nc(-c2ccc(N)cc2)cs1 ; yields the recorded call
Result string: False

====

# experiment: Nuclear factor erythroid 2-related factor 2/antioxidant responsive element (Nrf2/ARE) small molecule agonists: luciferase reporter gene qHTS assay in human keratinocytes (AID 1919969); also: nearly all actives have a fitted effect of over 35% in size
# assay_setup: KeratinoSens HaCaT ARE-luciferase, luminescence, 24 h; series mostly up to 92.4 µM
Records with an inconclusive call do not appear. The source made the active and inactive calls. Calls come from the whole dose curve.
// classify into active, inactive

>  <compound>
COc1cc(C(=O)OCCCN2CCCN(CCCOC(=O)c3cc(OC)c(OC)c(OC)c3)CC2)cc(OC)c1OC

>  <assigned_label>
inactive

$$$$

API: the following record is the query input.
Query string: // param item: CCCCCCCCCCC=O ; yields the recorded call
Result string: inactive

These data points were gathered from PubChem BioAssay (Tox21).
